Target: G1 APOL1 (Homo sapiens, UniProt O14791, I384M/S342G)
Test: Acute APOL1 Thallium Assay with inducible stable clones of HEK 293 cells
Conditions: HEK T-Rex tetracycline-inducible cells expressing G1 APOL1 (clone G1 DC3.25); inhibition of thallium flux rate
Description: Acute APOL1 Thallium Assay with Inducible Stable Clones of HEK 293 Cells Apolipoprotein L1 (APOL1) proteins form potassium-permeable cation pores in the plasma membrane. APOL1 risk variants (G1 and G2) induce greater potassium flux than G0 in HEK293 cells. […] The increase of fluorescence in the assay represents the influx of T1+ into the cell specifically through the potassium channel (i.e. through APOL1 pores), providing a functional measurement of potassium channel/pore activity. […]
pIC50: −log10 of the molar value.
recorded_metric: pIC50

Worked examples follow.
{"compound": "Cc1cc(F)ccc1-c1[nH]c2ccccc2c1CCC(=O)N[C@@H]1C(=O)NC[C@H]1O [Compound 119]", "target_of_assay": "G1 APOL1 (Homo sapiens, UniProt O14791, I384M/S342G)", "pIC50": "6.00 to 6.60"}
{"compound": "O=C(CCc1c(-c2ccccc2)[nH]c2ccc(F)cc12)N[C@H]1CCNC1=O [Compound 52]", "target_of_assay": "G1 APOL1 (Homo sapiens, UniProt O14791, I384M/S342G)", "pIC50": "> 6.60"}
{"compound": "O=C(CCc1c(-c2ccc(F)cc2)[nH]c2c(F)cc(Cl)cc12)N[C@@H]1CCNC1=O [Compound 33]", "target_of_assay": "G1 APOL1 (Homo sapiens, UniProt O14791, I384M/S342G)", "pIC50": "6.00 to 6.60"}
{"compound": "N#Cc1ccc(-c2[nH]c3c(F)cc(F)cc3c2CCC(=O)N[C@H]2CCNC2=O)cc1 [Compound 20]", "target_of_assay": "G1 APOL1 (Homo sapiens, UniProt O14791, I384M/S342G)", "pIC50": "> 6.60"}
{"compound": "O=C(CCc1c(-c2ccc(Cl)cc2)[nH]c2c(Cl)cccc12)N[C@@H]1C(=O)NC[C@H]1O [Compound 113]", "target_of_assay": "G1 APOL1 (Homo sapiens, UniProt O14791, I384M/S342G)", "pIC50": "> 6.60"}
{"compound": "O=C(CCc1c(-c2ccccc2)[nH]c2ccccc12)N[C@@H]1C(=O)NC[C@H]1O [Compound 86]", "target_of_assay": "G1 APOL1 (Homo sapiens, UniProt O14791, I384M/S342G)", "pIC50": "> 6.60"}
{"compound": "O=C(CCc1c(-c2ccc(F)cc2)[nH]c2c(F)cc(F)cc12)N[C@H]1C(=O)NC[C@@H]1O [Compound 12]", "target_of_assay": "G1 APOL1 (Homo sapiens, UniProt O14791, I384M/S342G)", "pIC50": "6.00 to 6.60"}
{"compound": "COc1cc(F)cc2c(CCC(=O)N[C@@H]3C(=O)NC[C@H]3O)c(-c3ccc(F)cc3)[nH]c12 [Compound 40]", "target_of_assay": "G1 APOL1 (Homo sapiens, UniProt O14791, I384M/S342G)", "pIC50": "> 6.60"}

For G1 APOL1 (Homo sapiens, UniProt O14791, I384M/S342G), provide pIC50 of COc1cc(F)cc2c(CCC(=O)N[C@H]3CCNC3=O)c(-c3ccc(F)cc3)[nH]c12 [Compound 41] please.
6.00 to 6.60

Now the same for C[C@@H](Cc1c(-c2ccc(F)cc2)[nH]c2c(F)cc(F)cc12)C(=O)N[C@H]1CCNC1=O [Compound 90]
< 6.00

Now the same for O=C(N[C@H]1CCNC1=O)[C@H](O)Cc1c(-c2ccc(F)cc2)[nH]c2c(F)cc(F)cc12 [Compound 93]
< 6.00

---

Biological target: APOL1 G1 Protein (Homo sapiens, UniProt O14791, I384M/S342G)
Test: Trypanosoma brucei brucei lysis assay using APOL1 recombinant protein (AlamarBlue viability readout)
Details: Trypanosoma brucei brucei (Lister 427 VSG 221 bloodstream form) lysis by 0.05 μg/mL recombinant APOL1 G1, 16 hrs
recorded_metric: IC50

Worked examples follow.
{"compound": "Cc1cc(-c2[nH]c3ccccc3c2CCC(=O)N[C@@H]2C(=O)NC[C@H]2O)ccc1F", "target_of_assay": "APOL1 G1 Protein (Homo sapiens, UniProt O14791, I384M/S342G)", "recorded_metric": "IC50", "value": "< 250 nM"}
{"compound": "O=C(CCc1c(-c2ccc(F)cc2)[nH]c2ccc(O)cc12)N[C@H]1CCNC1=O", "target_of_assay": "APOL1 G1 Protein (Homo sapiens, UniProt O14791, I384M/S342G)", "recorded_metric": "IC50", "value": "> 1000 nM"}
{"compound": "O=C(CCc1c(-c2ccc(F)cc2)[nH]c2c(F)cc(C(F)(F)F)cc12)N[C@@H]1C(=O)NC[C@H]1O", "target_of_assay": "APOL1 G1 Protein (Homo sapiens, UniProt O14791, I384M/S342G)", "recorded_metric": "IC50", "value": "< 250 nM"}
{"compound": "O=C(CCc1c(-c2ccc(F)cc2)[nH]c2ccc(F)cc12)NC1CCNC1=O (stereo not drawn)", "target_of_assay": "APOL1 G1 Protein (Homo sapiens, UniProt O14791, I384M/S342G)", "recorded_metric": "IC50", "value": "< 250 nM"}
{"compound": "O=C(CCc1c(-c2ccccc2)[nH]c2cccc(F)c12)N[C@@H]1C(=O)NC[C@H]1O", "target_of_assay": "APOL1 G1 Protein (Homo sapiens, UniProt O14791, I384M/S342G)", "recorded_metric": "IC50", "value": "250 to 1000 nM"}
{"compound": "Cc1ccc(-c2[nH]c3ccccc3c2CCC(=O)N[C@@H]2C(=O)NC[C@H]2O)cc1F", "target_of_assay": "APOL1 G1 Protein (Homo sapiens, UniProt O14791, I384M/S342G)", "recorded_metric": "IC50", "value": "< 250 nM"}
{"compound": "Cc1c(F)c(F)cc2c(CCC(=O)N[C@@H]3C(=O)NC[C@H]3O)c(-c3ccc(F)cc3)[nH]c12", "target_of_assay": "APOL1 G1 Protein (Homo sapiens, UniProt O14791, I384M/S342G)", "recorded_metric": "IC50", "value": "< 250 nM"}
{"compound": "O=C(CCc1c(-c2cc(F)cc(F)c2)[nH]c2c(F)cc(F)cc12)N[C@@H]1C(=O)NC[C@H]1O", "target_of_assay": "APOL1 G1 Protein (Homo sapiens, UniProt O14791, I384M/S342G)", "recorded_metric": "IC50", "value": "< 250 nM"}

Using the record for `Cc1ccc(-c2[nH]c3ccccc3c2CCC(=O)N[C@@H]2C(=O)NC[C@H]2O)cc1` , report its IC50.
< 250 nM

Now the same for `O=C(CCc1c(-c2ccc(F)cc2)[nH]c2c(F)cccc12)N[C@H]1CCNC1=O`
< 250 nM

---

Target: G1 APOL1 (Homo sapiens, UniProt O14791, I384M/S342G)
Test: Acute APOL1 Thallium Assay with inducible stable clones of HEK 293 cells
Details: HEK T-Rex tetracycline-inducible cells expressing G1 APOL1 (clone G1 DC3.25); inhibition of thallium flux rate
# reported IC50; entries follow

Using the record for `Cc1cc(F)c2[nH]c(-c3ccc(F)cc3)c(CCC(=O)N[C@H]3CCNC3=O)c2c1` , report its IC50.
0.25 to 1 µM

---

Target: G1 APOL1 (Homo sapiens, UniProt O14791, I384M/S342G)
Sequence (O14791 28-398 S342G/I384M): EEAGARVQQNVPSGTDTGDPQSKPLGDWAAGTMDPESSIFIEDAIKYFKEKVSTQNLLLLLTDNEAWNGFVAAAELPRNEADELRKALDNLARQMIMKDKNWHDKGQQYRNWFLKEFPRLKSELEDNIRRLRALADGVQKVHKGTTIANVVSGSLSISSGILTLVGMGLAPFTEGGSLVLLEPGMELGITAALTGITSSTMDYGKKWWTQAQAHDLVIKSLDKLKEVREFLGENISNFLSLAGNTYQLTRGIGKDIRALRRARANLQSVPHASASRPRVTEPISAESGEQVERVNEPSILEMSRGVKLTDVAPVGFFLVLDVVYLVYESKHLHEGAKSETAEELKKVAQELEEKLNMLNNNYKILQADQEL
Assay: Acute APOL1 Thallium Assay with inducible stable clones of HEK 293 cells
Conditions: HEK T-Rex tetracycline-inducible cells expressing G1 APOL1 (clone G1 DC3.25); inhibition of thallium flux rate
pIC50: −log10 of the molar value.
# reported pIC50; entries follow

Worked examples follow.
{"molecular_string": "O=C(CCc1c(-c2ccccc2)[nH]c2c(F)c(F)c(F)cc12)N[C@@H]1C(=O)NC[C@H]1O", "pIC50": "> 6.60"}
{"molecular_string": "O=C(CCc1c(-c2ccc(F)cc2)[nH]c2c(F)c(F)ccc12)N[C@H]1CCNC1=O", "pIC50": "6.00 to 6.60"}
{"molecular_string": "O=C(CCc1c(-c2ccc(OC(F)F)cc2)[nH]c2c(F)cc(F)cc12)N[C@@H]1C(=O)NC[C@H]1O", "pIC50": "> 6.60"}
{"molecular_string": "Cc1cccc2c(CCC(=O)N[C@@H]3C(=O)NC[C@H]3O)c(-c3ccc(F)cc3)[nH]c12", "pIC50": "> 6.60"}

For G1 APOL1 (Homo sapiens, UniProt O14791, I384M/S342G), provide pIC50 of `O=C(CCc1c(-c2ccc(F)cc2)[nH]c2c(F)cc(Cl)cc12)N[C@H]1CCNC1=O` please.
> 6.60

Now the same for `O=C1C[C@@H](NC(=O)CCc2c(-c3ccc(F)cc3)[nH]c3c(F)cc(F)cc23)C(=O)N1`
6.00 to 6.60

Now the same for `O=C(CCc1c(-c2ccc(F)cc2)[nH]c2c(F)cc(F)cc12)N[C@H]1C(=O)NC[C@H]1O`
6.00 to 6.60

Source listed as patent US11618746B2.
